Taken from paper PMC6280482.

# Measurement Target: JAK2 (Homo sapiens, UniProt O60674)
# Sequence (O60674 whole entry): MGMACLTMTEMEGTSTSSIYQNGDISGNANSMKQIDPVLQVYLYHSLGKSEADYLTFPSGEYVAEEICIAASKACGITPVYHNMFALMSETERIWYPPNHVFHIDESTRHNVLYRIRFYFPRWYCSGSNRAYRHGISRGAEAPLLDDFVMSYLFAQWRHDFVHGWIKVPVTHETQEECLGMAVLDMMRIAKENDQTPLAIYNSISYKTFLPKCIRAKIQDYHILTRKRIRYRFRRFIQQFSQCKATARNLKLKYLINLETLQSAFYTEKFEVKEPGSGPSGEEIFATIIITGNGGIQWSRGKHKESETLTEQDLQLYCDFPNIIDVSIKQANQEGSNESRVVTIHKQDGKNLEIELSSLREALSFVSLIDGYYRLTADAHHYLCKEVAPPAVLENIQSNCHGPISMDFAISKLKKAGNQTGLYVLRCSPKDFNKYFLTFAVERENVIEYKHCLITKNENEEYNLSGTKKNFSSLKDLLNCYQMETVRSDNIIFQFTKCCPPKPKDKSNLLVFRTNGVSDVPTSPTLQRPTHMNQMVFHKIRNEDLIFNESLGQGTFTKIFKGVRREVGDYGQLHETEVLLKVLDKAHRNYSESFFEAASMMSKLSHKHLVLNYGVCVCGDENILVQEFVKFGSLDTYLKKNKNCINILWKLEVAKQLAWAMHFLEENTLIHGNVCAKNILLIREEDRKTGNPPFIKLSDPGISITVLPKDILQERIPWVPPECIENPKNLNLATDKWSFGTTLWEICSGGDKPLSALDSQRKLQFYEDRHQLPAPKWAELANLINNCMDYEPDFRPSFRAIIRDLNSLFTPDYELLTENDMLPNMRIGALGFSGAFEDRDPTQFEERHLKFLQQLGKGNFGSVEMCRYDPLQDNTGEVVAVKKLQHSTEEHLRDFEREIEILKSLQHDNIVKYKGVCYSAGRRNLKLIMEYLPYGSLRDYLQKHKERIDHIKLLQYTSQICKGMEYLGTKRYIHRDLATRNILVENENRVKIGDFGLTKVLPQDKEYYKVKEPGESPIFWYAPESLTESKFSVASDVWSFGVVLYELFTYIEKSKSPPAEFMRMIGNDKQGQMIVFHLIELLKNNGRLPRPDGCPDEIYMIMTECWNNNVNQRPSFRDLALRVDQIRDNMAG
Measurement Name: IC50

Hi! What's the reported IC50 for COc1cc(/C=C/C(=O)CC(=O)/C=C/c2ccc(O)c(OC)c2)ccc1O on JAK2 (Homo sapiens, UniProt O60674)?
~8 µM
